- target_desc: human GABAA α2β3γ2 (Homo sapiens, UniProt P18507+P28472+P47869)
- Construct: expressed in transfected cells; host or cells: CHO-K1 (ATCC, CCL-61), transient electroporation with MaxCyte STX, cryopreserved assay-ready cells
- Sequence (P47869 29-451): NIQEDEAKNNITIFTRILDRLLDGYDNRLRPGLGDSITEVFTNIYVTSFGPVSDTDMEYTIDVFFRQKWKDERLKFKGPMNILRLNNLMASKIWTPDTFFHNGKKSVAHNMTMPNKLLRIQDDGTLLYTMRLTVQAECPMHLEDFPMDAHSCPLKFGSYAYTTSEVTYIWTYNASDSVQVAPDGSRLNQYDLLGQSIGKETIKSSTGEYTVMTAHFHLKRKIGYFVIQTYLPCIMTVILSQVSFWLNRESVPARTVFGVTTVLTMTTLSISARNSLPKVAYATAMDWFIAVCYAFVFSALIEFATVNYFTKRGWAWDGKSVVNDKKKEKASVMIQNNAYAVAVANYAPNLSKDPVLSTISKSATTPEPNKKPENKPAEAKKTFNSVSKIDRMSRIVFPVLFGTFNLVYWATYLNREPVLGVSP
- Sequence (P28472 26-473): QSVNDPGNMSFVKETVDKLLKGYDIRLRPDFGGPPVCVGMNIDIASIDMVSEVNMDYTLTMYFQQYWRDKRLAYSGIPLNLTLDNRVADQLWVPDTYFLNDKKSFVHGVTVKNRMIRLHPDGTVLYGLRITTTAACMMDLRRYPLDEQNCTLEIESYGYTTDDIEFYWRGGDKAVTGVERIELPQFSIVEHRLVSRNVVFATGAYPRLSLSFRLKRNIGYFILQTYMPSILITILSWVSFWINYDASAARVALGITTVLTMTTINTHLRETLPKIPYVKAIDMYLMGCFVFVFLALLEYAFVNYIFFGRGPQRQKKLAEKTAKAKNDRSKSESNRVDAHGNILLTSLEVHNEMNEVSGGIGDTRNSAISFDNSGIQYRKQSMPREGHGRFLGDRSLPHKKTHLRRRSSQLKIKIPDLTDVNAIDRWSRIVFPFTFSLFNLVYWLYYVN
- Sequence (P18507 40-467 isoform P18507-1 limits assumed): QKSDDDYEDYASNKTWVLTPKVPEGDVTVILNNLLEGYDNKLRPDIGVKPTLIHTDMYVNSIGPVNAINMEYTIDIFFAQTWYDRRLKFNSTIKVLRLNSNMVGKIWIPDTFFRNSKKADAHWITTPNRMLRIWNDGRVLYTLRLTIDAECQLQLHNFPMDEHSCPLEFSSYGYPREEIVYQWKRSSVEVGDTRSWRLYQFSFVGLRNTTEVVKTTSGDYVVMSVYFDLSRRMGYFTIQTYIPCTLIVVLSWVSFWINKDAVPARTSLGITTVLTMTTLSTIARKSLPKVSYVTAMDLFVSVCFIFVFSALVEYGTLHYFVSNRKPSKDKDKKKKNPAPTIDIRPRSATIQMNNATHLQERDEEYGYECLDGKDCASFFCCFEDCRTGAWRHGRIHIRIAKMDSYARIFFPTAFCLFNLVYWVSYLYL
- assay_method_text: cell-based
- Assay type: cell-based
- condition_description: 1 µM modulator; p<0.05; difference in pEC50 ≥0.15 significant
result_type: Significance 95% confidence of pEC50 difference vs GABA alone

>>> df
                                   compound                               target_desc    recorded_measurement
0  CCn1ncnc1COc1nn2c(-c3ccccc3F)nnc2cc1C(C)(C)C  human GABAA α2β3γ2 (Homo sapiens, UniProt P18507+P28472+P47869)         non-significant
1  CCCN(CCC)C(=O)Cc1c(-c2ccc(Cl)cc2)nc2ccc(Cl)cn12  human GABAA α2β3γ2 (Homo sapiens, UniProt P18507+P28472+P47869)  Significant difference
2  O=C1Nc2ccc(Cl)cc2C(c2ccccc2Cl)=NC1O (stereo not drawn)  human GABAA α2β3γ2 (Homo sapiens, UniProt P18507+P28472+P47869)  Significant difference
3  Cn1ncnc1COc1nn2c(-c3cc(F)ccc3F)nnc2cc1C(C)(C)C  human GABAA α2β3γ2 (Homo sapiens, UniProt P18507+P28472+P47869)         non-significant
4    CN1C(=O)CC(=O)N(c2ccccc2)c2cc(Cl)ccc21  human GABAA α2β3γ2 (Homo sapiens, UniProt P18507+P28472+P47869)  Significant difference

QUERY: Quote Significance 95% confidence of pEC50 difference vs GABA alone reported for O=C1CC(=O)N(c2ccccc2)c2cc(Cl)ccc2N1 please.
RESULT: non-significant

* * *

- target_desc: human GABAA α2β3γ2 (Homo sapiens, UniProt P18507+P28472+P47869)
- assay_method_text: cell-based
result_type: IC50 (nM)
Answer with a number only, understood to be in nM.

QUERY: Quote IC50 reported for CN1CCc2cc3c(cc2[C@H]1[C@@H]1OC(=O)c2c1ccc1c2OCO1)OCO3 please.
RESULT: 2140
